Data provenance: patent US8278482B2

test system: mouse fibroblast cells (ATCC CCL-1, L929); assay: Cytotoxicity, WST-8 colorimetric assay; type: cell-based; conditions: pH 4 (Sal), 60 min exposure
Binarize CT50 (concentration that results in survival of 50% of the cells) at 0.9 mM; below is Fulfilled, at or above is Not fulfilled.

{"smi": "CC[N+](C)(CC)CCC(C)(C)N(Cl)Cl.[Cl-]", "assigned-class": "Not fulfilled"}
{"smi": "CC(C)(C[N+](C)(C)C)N(Cl)Cl", "assigned-class": "Fulfilled"}
{"smi": "CC(C)(CCS(=O)(=O)CC[N+](C)(C)C)N(Cl)Cl.[Cl-]", "assigned-class": "Fulfilled"}
{"smi": "CC(C)(CC[N+](C)(C)C)N(Cl)Cl.[Cl-]", "assigned-class": "Not fulfilled"}
{"smi": "CC(C)(CCS(=O)(=O)CCC[N+](C)(C)C)N(Cl)Cl.[Cl-]", "assigned-class": "Not fulfilled"}
{"smi": "CC(C)(CC[N+]1(C)CCC(F)(F)CC1)N(Cl)Cl.[Cl-]", "assigned-class": "Not fulfilled"}

----------
Test system: Staphylococcus aureus (MCC 91731)
Assay: Antimicrobial activity (MBC), S. aureus MCC 91731
Assay type: cell-based
Conditions: pH 4 (Sal), 1 h exposure at room temperature
Protocol: To determine antimicrobial activity, Escherichia coli (ATCC 25922), Staphylococcus aureus (ATCC 29213), Pseudomonas aeruginosa (ATCC 27853), and Candida albicans (ATCC 10231) were used in primary screening. […] Plates were incubated at 37° C., and the numbers of microbes were counted by direct colony count to quantitate the surviving microbes as CFU/mL. […]
readout-name: Minimum Bactericidal Concentration (MBC) (≧99.9% kill) (µg/mL)

{"smi": "CC(C)(CC[N+]1(C)CCCCC1)N(Cl)Cl.[Cl-]", "experimental-target": "Staphylococcus aureus (MCC 91731)", "result-units": "µg/mL", "number": 4}
{"smi": "CC(C)(CC[N+](C)(C)C)N(Cl)Cl.[Cl-]", "experimental-target": "Staphylococcus aureus (MCC 91731)", "result-units": "µg/mL", "number": 1}
{"smi": "CC[N+](C)(CC)CCC(C)(C)N(Cl)Cl.[Cl-]", "experimental-target": "Staphylococcus aureus (MCC 91731)", "result-units": "µg/mL", "number": 4}
{"smi": "CC(C)(C[N+](C)(C)C)N(Cl)Cl", "experimental-target": "Staphylococcus aureus (MCC 91731)", "result-units": "µg/mL", "number": 8}

----------
Entries and their MBC
test system: Escherichia coli (ATCC 25922); assay: Antimicrobial activity (MBC), E. coli ATCC 25922; type: cell-based; conditions: ATCC25922, E. coli ATCC 25922, pH 4 (Sal), 1 h exposure at room temperature, read-out: Minimum Bactericidal Concentration (MBC) (≧99.9% kill)
readout-name: MBC (µg/mL)

{"molecule": "CC(C)(CC[N+]1(C)CCCCCC1)N(Cl)Cl.[Cl-] [Compound 21-118]", "readout-name": "MBC", "result-units": "µg/mL", "number": 4}
{"molecule": "CC(C)(c1cn(CC[N+](C)(C)C)nn1)N(Cl)Cl.[Cl-] [Compound 21-92]", "readout-name": "MBC", "result-units": "µg/mL", "number": 8}
{"molecule": "CC(C)(CCS(=O)(=O)CCC[N+](C)(C)C)N(Cl)Cl.[Cl-] [Compound 21-112]", "readout-name": "MBC", "result-units": "µg/mL", "number": 8}
{"molecule": "CCCC[N+](C)(C)CCC(C)(C)N(Cl)Cl.[Cl-] [Compound 21-124]", "readout-name": "MBC", "result-units": "µg/mL", "number": 8}
{"molecule": "CC(C)(CC(=O)OCC[N+]1(C)CCCCC1)N(Cl)Cl.[Cl-] [Compound 21-93]", "readout-name": "MBC", "result-units": "µg/mL", "number": 4}
{"molecule": "CC(C)(CCS(=O)(=O)CC[N+](C)(C)C)N(Cl)Cl.[Cl-] [Compound 21-02]", "readout-name": "MBC", "result-units": "µg/mL", "number": 8}
{"molecule": "CC(C)(CC[N+]1(C)CCCC1)N(Cl)Cl.[Cl-] [Compound 21-130]", "readout-name": "MBC", "result-units": "µg/mL", "number": 4}
{"molecule": "C[S+](C)CC(C)(C)N(Cl)Cl.[Cl-] [Compound 21-86]", "readout-name": "MBC", "result-units": "µg/mL", "number": 8}
{"molecule": "CC(C)(CC[N+](C)(C)C1CCCCC1)N(Cl)Cl.[Cl-] [Compound 21-126]", "readout-name": "MBC", "result-units": "µg/mL", "number": 16}
